Cited source: patent US20140271653A1

molecular target: T1, RSV-F.mmh (Respiratory Syncytial Virus); assay: SPR (Biacore), mAb captured via Fc, soluble RSV-F.mmh injected, 25 C
T1 construct: also called recombinant RSV-F; soluble monomeric RSV-F
The following binders are shown together with reported koff values.

binder	u	koff
H1H3566P (antibody, V domains shown) VH: QVQLVESGGGVVQPGRSLRLSCAASGFTFSSYGMHWVRQAPGKGLEWVVFLWYDGSNKHYADSVKGRFTISRDNSKNTLYLQMNSLRAEDTAVYYCARSGLASYYYYSMDVWGQGTTVTVSS VL: DIQMTQSPSSLSASVGDRVTITCRASQGIRNDLAWYQQKPGKAPKRLIYGASSLHSGVPSRFSGSGSGTEFTLTISSLQPEDFATYSCLQHNSYPWTFGQGTKVEIK	s⁻¹	4.2e-05
H1H3608P2 (antibody, V domains shown) VH: QVQLVESGGGVVQPGRSLRLSCAASGFTFSSYGMHWVRQAPGKGLEWVAVIYYEGSNDYYVDSVKGRFTISRDNSKNTLYLQMNSLRAEDTAVYYCARRDWNSFDYWGQGTLVTVSS VL: DIVMTQSPLSLSVTPGEPASISCRSSQNLLNRNGFNYLDWYLQKPGQSPQLLIYLGSNRASGVPDRFSGSGSGTDFTLKISRVEVEDVGVYYCMQAIQTPYTFGQGTKLEIK	s⁻¹	2.6e-05
H1H3567P (antibody, V domains shown) VH: QVQLVQSGAEVKKPGASVKVSCKASGYTLTGYYLHWVRQAPGQGLEWMGWINPTSGGTNYAQKFQGRVTMTRDTSISAAFMELSRLRSDDTAVYHCAREFWPHGMDVWGQGTTVTVSS VL: AIQMTQSPSSLSASVGDRVTITCRASQAIRNDLGWYQQKPGKAPKLLIYASSSLQSGVPSRFSGSGSGTDFTLTISSLQPEDFATYYCLADYKYTWTFGQGTKVEIK	s⁻¹	0.00263
H1H3605P (antibody, V domains shown) VH: QVQLQESGPGLVKPSETLSLTCTVSGGFISNYYWSWIRQPPGKGLEWIGYIYYSGSTKYNPSLKSRVTISVDTSKNQFSLKLSSVSAADTAVYYCARDGVVAAAGPPYHYHYGLDVWGQGTTVTVSS VL: DIVMTQSPDSLAVSLGERATINCKSSQNLLYTSSNKNSLAWYQQKPGQPPELLIYWASTRESGVPDRFSGSGSGTDFILTISSLQAEDVAVYYCQQYYSSPWTFGQGTKVEIK	s⁻¹	0.000168
H1H3583P (antibody, V domains shown) VH: QVQLVQSGAEVKKSGSSVKVSCKASGGTFSSYAISWVRQAPGQGLEWMGGIIPIFGTGNYAQKFQGRVTITTDESTSTAYMELSSLRSEDTAVYYCARDSSSSPRYYGMDVWGHGTTVTVSS VL: EIVLTQSPATLSLSPGERATLSCRASQSVTSYLAWYQQKPGQAPRLLIYDVSKRATGIPARFSGSGSGTDFTLTISSLEPEDFATYYCQQRSNWPPTFGQGTRLEIK	s⁻¹	0.00308
H1H3589P (antibody, V domains shown) VH: EVQLVESGGGLVQPGGSLRLSCEASGFTFSTYWMSWVRQAPGKGLEWVANIKQDGSVKYFVDSVKGRFTVSRDNAKNSLYLQMNSLRAEDTALYHCARERHRGSYYGYYDGMDVWGQGTTVTVSS VL: DIQMTQSPSSLSASVGDRVTITCRASQNIDIYLNWYQERPGKAPNLLIYAASSLQSGVPSRFSGSGSGTDFTLTISSLQPEDFATYYCQQSYNTPFTFGGGTKVEIK	s⁻¹	0.00914
H1H3565P (antibody, V domains shown) VH: QVQLVESGGGVVQPGRSLRLSCAASGFTFNSYGMHWVRQAPGKGLEWVTFIWSDGSNKYYLDSVKGRFTISRDNSKNTLYLQMNSLRAEDTAVYYCARSGLASYYYYGMDVWGQGTTVTVSS VL: DIQMTQSPSSLSASVGDRVTITCRASQGIRNDLGWYQQKPGKAPKRLIYGASSLQSGVPSRFSGSGSGTEFTLTISSLQPEDFATYSCLQHNSYPWTFGQGTKVEIK	s⁻¹	5.8e-05
H1H3604P (antibody, V domains shown) VH: QVQLVESGGGLVKPGGSLRLSCAASGFTFSDYYMTWIRQAPGRGLEWVSYISDTGSHLYYADSVRGRFTISRDNAKNSLYLQMNNLRAEDTAVYYCARDQDGEMELRFFDYWGQGTLVTVSS VL: EIVLTQSPATLSLSPGERGTLSCRASQSINNYLAWYQQKPGQAPRLLIFDASNRATGIPARFSGSGSGTDFTLTISRIEPEDFAVYYCQQRTNWPLTFGGGTKVEIK	s⁻¹	9.27e-05
H1H3607P (antibody, V domains shown) VH: QVQLVESGGGLVKPGGSLRLSCAASGFTFSDYYMTWIRQVPGKGLEWVSYISSTGNNRYYGDSVKGRFAISRDNAKNLLFLQMNSLKAEDTAVYYCARENNWNPYFFYYGMDVWGQGTTVTVSS VL: DIQMTQSPSSVSASVGDRVTITCRASQGISIWLAWYQQKPGKAPKLLISAASTLQSGVPSRFSGSGSGTDFTLTISSLQPEDFATYYCQQANSFPLTFGQGTKVEIK	s⁻¹	0.000148
H1H3603P (antibody, V domains shown) VH: QVQLQESGPGLVKPSETLSLTCTVSGGSISGYYWTWIRQPPGKGLEWIGYIYYSGATNYNPSLKSRVTISLDTSKNQFSLKLSSVTAADTAVYYCARDGNYDILTGYYNYHYYGMDVWGQGTTVTVSS VL: DIQMTQSPSSLSASVGDRVTITCRASQDIGNYLAWFQQKPGKAPESLIYAASILQSGVPSKFSGSGSGTDFTLTISSLQPEDFATYYCQQYNTFPWTFGQGTKVEIK	s⁻¹	0.000123
H1H3627N (antibody, V domains shown) VH: EVQLVESGGGLVQPGGSLRLSCAASGFTISNYEMNWVRQAPGKGLEWVSYISTSGITIYYADSVQGRFTISRDNAKNSLYLQLNSLRAEDTAVYYCARGYCTNGVCYPHYYYSDMDVWGQGTTVTVSS VL: DIQMTQSPSSLSASVGDRLTITCRASQTISTYLNWFQQKVGNAPKLLIYSTSSLQSGVPARFSGSGSGTDFTLTISSLQPEDFATYYCQQSYSSPPTFGQGTKVEIK	s⁻¹	0.000149
